target: Retinaldehyde dehydrogenase 3 (Homo sapiens); assay: qHTS for Inhibitors of the Aldehyde Dehydrogenase Family (ALDH1A3) Confirmatory screens (AID 2061311); settings: ALDH inhibition qHTS; series mostly up to 46 µM; further: nearly all actives have a fitted effect of over 60% in size
Records with an inconclusive call do not appear. Calls of active or inactive are those of the source. The call rests on the fitted dose curve; in most records, active means well fitted inhibition curve with a large enough effect; inconclusive means small, poorly fitted or top-dose-only effect; inactive means no such curve, though single readings can be large or run the other way.
Write down one outcome, taken from active, inactive

Please review the following examples before continuing.
compound=NC(=O)c1ccc(C[C@H](C(=O)O)N2C(=O)c3ccc(C(=O)O)cc3C2=O)cc1 group=inactive
compound=CCOc1ccccc1-c1nnc2n1N=C(c1ccc(OC)cc1)CS2 group=inactive
compound="O=C(NC1CCCc2c1cnn2-c1ccc(F)cc1F)c1ccc(C(=O)c2ccccc2)cc1 (configuration not stated)" group=inactive
compound=COc1cc(O[C@@H]2O[C@H](CO[C@H]3OC[C@](O)(CO)[C@H]3O)[C@@H](O)[C@H](O)[C@H]2O)cc(OC)c1O group=active
compound=COC(=O)N1CC2(CC2)C[C@H](C(=O)NO)[C@H]1C(=O)N1CCN(c2ccccc2)CC1 group=inactive
compound=N#C/C(=C\c1ccc(O)c(O)c1)C(=O)NCCCNC(=O)/C(C#N)=C/c1ccc(O)c(O)c1 group=active
compound=Brc1ccc([C@H]2CN3CCSC3=N2)cc1 group=inactive
compound=COCC(=O)NC/C=C/c1ccc2ncnc(Nc3ccc(Oc4ccc(C)nc4)c(C)c3)c2c1 group=inactive

Request: I'd appreciate the recorded outcome for Nc1nnc(-c2cccc3ccccc23)o1 from this test.
Response: inactive

Request: Given Cc1nnc(-c2ccccc2C(C)C)nc1NCc1ccc(-c2cccnc2)cc1 , state the outcome it received in this test.
Response: active

Request: What is the recorded call for this compound in the test? CN(C)c1ccc(C2O[C@@H](c3ccccc3)C[C@H](c3ccccc3)O2)cc1 (some centres not stated)
Response: active
